Quick reference: % of Prodrug Remaining after 60 min of the listed items.
ASSAY_OVERVIEW: Chemical stability of prodrugs in aqueous buffers
Assay type: physicochemical
APPLIED_CONDITIONS: aqueous buffer pH 2.0, 37° C.
Note: unit % is implicit; provide only the numeric part.

Some compounds with known % of Prodrug Remaining after 60 min results, for comparison:
CC(C)(C)C(=O)OCOC(=O)NC[C@H](CC(=O)[O-])c1ccc(Cl)cc1.[Na+] [(20)]
100
CC(=O)OC(OC(=O)NC[C@H](CC(=O)[O-])c1ccc(Cl)cc1)C(C)C.[Na+] (stereo partly drawn) [(23)]
107
O=C([O-])C[C@@H](CNC(=O)OCOC(=O)c1ccccc1)c1ccc(Cl)cc1.[Na+] [(12)]
100

Ask: What value of % of Prodrug Remaining after 60 min has been recorded for this entry: CC(C)C(=O)OCOC(=O)NC[C@H](CC(=O)[O-])c1ccc(Cl)cc1.[Na+] [(18)]
Reply: 105

Ask: Now give it for CC(=O)OC(C)OC(=O)NC[C@H](CC(=O)[O-])c1ccc(Cl)cc1.[Na+] (stereo partly drawn) [(30)] too.
Reply: 100

Ask: Now give it for CCCC(=O)OCOC(=O)NC[C@H](CC(=O)[O-])c1ccc(Cl)cc1.[Na+] [(16)] too.
Reply: 100

----------
ASSAY_OVERVIEW: Prodrug stability in rat liver S9
Assay type: in vitro ADME
APPLIED_CONDITIONS: Rat Liver S9 (0.5 mg/mL), 2.0 μM, NADPH, 37° C.
Quick reference: % of Baclofen Released after 60 min of the listed items.
Note: unit % is implicit; provide only the numeric part.

Some molecules with known % of Baclofen Released after 60 min results, for comparison:
CC(C)CC(=O)OCOC(=O)NC[C@H](CC(=O)[O-])c1ccc(Cl)cc1.[Na+] [(59)]
85
CC(=O)OC(C)OC(=O)NC[C@H](CC(=O)[O-])c1ccc(Cl)cc1.[Na+] (stereo partly shown) [(30)]
85
CC(C)C(=O)O[C@H](C)OC(=O)NC[C@H](CC(=O)[O-])c1ccc(Cl)cc1.[Na+] [(34)]
100
CC(C)C(=O)OCOC(=O)NC[C@H](CC(=O)[O-])c1ccc(Cl)cc1.[Na+] [(18)]
100
CC(OC(=O)NC[C@H](CC(=O)[O-])c1ccc(Cl)cc1)OC(=O)C(C)C.[Na+] (stereo partly shown) [(33)]
101

Ask: What value of % of Baclofen Released after 60 min has been recorded for this entry: CCCC(=O)OCOC(=O)NC[C@H](CC(=O)[O-])c1ccc(Cl)cc1.[Na+] [(16)]
Reply: 100

Ask: Now give it for CC(C)C(=O)OC(OC(=O)NC[C@H](CC(=O)[O-])c1ccc(Cl)cc1)C1CCCCC1.[Na+] (stereo partly shown) [(84)] too.
Reply: 91

----------
Test system: pancreatin
ASSAY_OVERVIEW: Pancreatin stability
Format: in vitro ADME, porcine
APPLIED_CONDITIONS: 1% (w/v) pancreatin, 5 μM, pH 7.5, 37° C.
Quick reference: % of Baclofen Released after 60 min of the listed items.
Note: unit % is implicit; provide only the numeric part.

CC(C)C(OC(=O)NC[C@H](CC(=O)[O-])c1ccc(Cl)cc1)OC(=O)C(C)(C)C.[Na+] (some centres unmarked) [(43)]
4
CCCC(=O)OC(OC(=O)NC[C@H](CC(=O)[O-])c1ccc(Cl)cc1)C(C)C.[Na+] (some centres unmarked) [(27)]
9
CCC[C@H](OC(=O)NC[C@H](CC(=O)[O-])c1ccc(Cl)cc1)OC(=O)C(C)C.[Na+] [(91)]
78
CCOC(C)(OCC)C(=O)OCOC(=O)NC[C@H](CC(=O)[O-])c1ccc(Cl)cc1.[Na+] [(51)]
50

Ask: What value of % of Baclofen Released after 60 min has been recorded for this entry: CC(C)C(=O)O[C@@H](OC(=O)NC[C@H](CC(=O)[O-])c1ccc(Cl)cc1)C(C)C.[Na+] [(92)]
Reply: 7

Ask: Now give it for CC(C)C(=O)O[C@@H](OC(=O)NC[C@H](CC(=O)O)c1ccc(Cl)cc1)C(C)C [(104)] too.
Reply: 6

Ask: Now give it for CC(=O)OC(C)OC(=O)NC[C@H](CC(=O)[O-])c1ccc(Cl)cc1.[Na+] (some centres unmarked) [(30)] too.
Reply: 9

Ask: Now give it for CC(C)C(=O)O[C@H](C)OC(=O)NC[C@H](CC(=O)[O-])c1ccc(Cl)cc1.[Na+] [(34)] too.
Reply: 18

----------
ASSAY_OVERVIEW: Chemical stability of prodrugs in aqueous buffers
Assay type: physicochemical
APPLIED_CONDITIONS: aqueous buffer pH 8.0, 37° C.
VALUE_TYPE: % of Baclofen Released after 60 min (%)
Note: unit % is implicit; provide only the numeric part.

Ask: What value of % of Baclofen Released after 60 min has been recorded for this entry: CC(C)C(OC(=O)NC[C@H](CC(=O)[O-])c1ccc(Cl)cc1)OC(=O)C(C)(C)C.[Na+] (some centres unmarked)
Reply: 0

Ask: Now give it for CC(=O)OC(C)OC(=O)NC[C@H](CC(=O)[O-])c1ccc(Cl)cc1.[Na+] (some centres unmarked) too.
Reply: 3

----------
ASSAY_OVERVIEW: Chemical stability of prodrugs in aqueous buffers
Format: physicochemical
APPLIED_CONDITIONS: aqueous buffer pH 7.4, 37° C.
Quick reference: % of Prodrug Remaining after 60 min of the listed items.
The answer consists of two parts: a number and, after it, its unit.

Some compounds with known % of Prodrug Remaining after 60 min results, for comparison:
CC(C)CC(=O)OCOC(=O)NC[C@H](CC(=O)[O-])c1ccc(Cl)cc1.[Na+] [(59)]
103%
O=C([O-])C[C@@H](CNC(=O)OCOC(=O)c1cccs1)c1ccc(Cl)cc1.[Na+] [(57)]
100%
CC(=O)OC(C)OC(=O)NC[C@H](CC(=O)[O-])c1ccc(Cl)cc1.[Na+] (stereo partly drawn) [(30)]
87%
CCCC(=O)OCOC(=O)NC[C@H](CC(=O)[O-])c1ccc(Cl)cc1.[Na+] [(16)]
100%
CC(C)C(=O)O[C@H](C)OC(=O)NC[C@H](CC(=O)[O-])c1ccc(Cl)cc1.[Na+] [(34)]
100%

Ask: What value of % of Prodrug Remaining after 60 min has been recorded for this entry: O=C([O-])C[C@@H](CNC(=O)OCOC(=O)c1ccccc1)c1ccc(Cl)cc1.[Na+] [(12)]
Reply: 100%

----------
Test system: pancreatin
ASSAY_OVERVIEW: Pancreatin stability
Type: in vitro ADME, porcine
APPLIED_CONDITIONS: 1% (w/v) pancreatin, 5 μM, pH 7.5, 37° C.
VALUE_TYPE: % of Prodrug Remaining after 60 min
The answer consists of two parts: a number and, after it, its unit.

Some compounds with known % of Prodrug Remaining after 60 min results, for comparison:
CC(C)C(=O)O[C@@H](OC(=O)NC[C@H](CC(=O)O)c1ccc(Cl)cc1)C(C)C
90%
CC(C)C(=O)OCOC(=O)NC[C@H](CC(=O)[O-])c1ccc(Cl)cc1.[Na+]
2%

Ask: What value of % of Prodrug Remaining after 60 min has been recorded for this entry: `O=C([O-])C[C@@H](CNC(=O)OCOC(=O)C1CCCCC1)c1ccc(Cl)cc1.[Na+]`
Reply: 2%

----------
ASSAY_OVERVIEW: Prodrug stability in human plasma in vitro
Format: in vitro ADME
APPLIED_CONDITIONS: 2.0 μM, 37° C.
Quick reference: % of Baclofen Released after 60 min of the listed items.
Note: unit % is implicit; provide only the numeric part.

Ask: What value of % of Baclofen Released after 60 min has been recorded for this entry: CC(C)C(=O)OC(OC(=O)NC[C@H](CC(=O)[O-])c1ccc(Cl)cc1)C(C)C.[Na+] (stereo partly shown)
Reply: 4

Ask: Now give it for `CC(C)C(=O)OCOC(=O)NC[C@H](CC(=O)[O-])c1ccc(Cl)cc1.[Na+]` too.
Reply: 27

Ask: Now give it for CCCC(=O)OC(OC(=O)NC[C@H](CC(=O)[O-])c1ccc(Cl)cc1)C1CCCCC1.[Na+] (stereo partly shown) too.
Reply: 4

Ask: Now give it for `CC(C)C(=O)O[C@@H](OC(=O)NC[C@H](CC(=O)[O-])c1ccc(Cl)cc1)C(C)C.[Na+]` too.
Reply: 1

----------
ASSAY_OVERVIEW: Chemical stability of prodrugs in aqueous buffers
Assay type: physicochemical
APPLIED_CONDITIONS: aqueous buffer pH 7.4, 37° C.
Quick reference: % of Baclofen Released after 60 min of the listed items.
Note: unit % is implicit; provide only the numeric part.

Some compounds with known % of Baclofen Released after 60 min results, for comparison:
CCCC(=O)OC(OC(=O)NC[C@H](CC(=O)[O-])c1ccc(Cl)cc1)C(C)C.[Na+] (some centres unmarked) [(27)]
0
CC(C)C(=O)O[C@H](C)OC(=O)NC[C@H](CC(=O)[O-])c1ccc(Cl)cc1.[Na+] [(34)]
0
O=C([O-])C[C@@H](CNC(=O)OCOC(=O)CCc1ccccc1)c1ccc(Cl)cc1.[Na+] [(62)]
2

Ask: What value of % of Baclofen Released after 60 min has been recorded for this entry: CC(C)C(=O)OC(OC(=O)NC[C@H](CC(=O)[O-])c1ccc(Cl)cc1)C(C)C.[Na+] (some centres unmarked) [(25)]
Reply: 0

Ask: Now give it for CC(OC(=O)NC[C@H](CC(=O)[O-])c1ccc(Cl)cc1)OC(=O)C(C)C.[Na+] (some centres unmarked) [(33)] too.
Reply: 0

Ask: Now give it for CC(=O)OC(OC(=O)NC[C@H](CC(=O)[O-])c1ccc(Cl)cc1)C(C)C.[Na+] (some centres unmarked) [(23)] too.
Reply: 1

Ask: Now give it for CC(C)C(=O)O[C@@H](OC(=O)NC[C@H](CC(=O)O)c1ccc(Cl)cc1)C(C)C [(104)] too.
Reply: 0

Ask: Now give it for CCCC(=O)OC(OC(=O)NC[C@H](CC(=O)[O-])c1ccc(Cl)cc1)C1CCCCC1.[Na+] (some centres unmarked) [(85)] too.
Reply: 0
